- TARGET_OR_SYSTEM: T1, P5mSN
- T1 chain: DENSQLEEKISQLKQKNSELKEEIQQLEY
- METHOD_NOTES: two-hybrid library CCNG1;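 note: natural log of median RNA to DNA barcode read ratio; higher means stronger binding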
Quick reference for interaction score among some binders
# output: bare number, no unit

# example entries with known answers
DKISQLKEKIQQLKQENQQLEEENSQLEY [P4mSN]
-1.42
DKNSQLKEENSQLEEKIEQLKEKIQELKY [P10mSN]
-0.891
DEIRQLEQENSQLERENQRLEQEIYQLER [P1mSN]
-1.04

Okay, next one:
Bench note: what interaction score did DKNEQLKEKISELKEKIEQLKEENQSLEY [P12mSN] show?
-1.2
